test: in vitro; details: human, microsomes, pH 7.4
measurement_type: half-life at 1 h, 1 µM (h)
Your answer is read as h, so omit the unit and give the number.

Using the record for Cc1[nH]c(C(=O)Nc2nc3c(N4CCOCC4)cc(C(=O)O)cc3s2)c(Cl)c1Cl [7a] , report its half-life at 1 h, 1 µM. 1.72

----------
Overview of recorded MIC for various compounds
tested on: 100 A. baumannii strains (50 MDR, 50 non-MDR); experiment: MIC broth microdilution at IHMA Europe, panel of 100 strains; format: cell-based; conditions: Acinetobacter baumannii, A. baumannii IHMA 2178574, Ukraine 2020, Non-MDR; read-out: MIC
Your answer is read as µg/mL, so omit the unit and give the number.

Using the record for `CN(C)c1cc(NC(=O)CNC(C)(C)C)c(O)c2c1C[C@H]1C[C@H]3[C@H](N(C)C)C(O)=C(C(N)=O)C(=O)[C@@]3(O)C(O)=C1C2=O` , report its MIC. 0.25

Now take the following compound into account.
Using the record for `Cc1[nH]c(C(=O)Nc2nc3c(N4[C@@H]5CC[C@H]4COC5)cc(C(=O)O)cc3s2)c(Cl)c1Cl` , report its MIC. 4
